# maps each entry to its minimal effective concentration
test system: primary cultured cells of mouse fetus-derived dorsal root ganglia (DRGs); test: Suppression of axonal degeneration after axotomy in DRG explant culture; type: cell-based; conditions: Mus musculus; minimum concentration at which axonal degeneration was suppressed (DI 0.3 or less); 24 hours after axotomy; read-out: Evaluation on protection against degeneration

Below, each entry is followed by its recorded minimal effective concentration result.
COCOc1cccc(OCCOCCNC(=O)c2cccnc2)c1 : 0.01 to 0.1 µM
O=C(/C=C/c1cccnc1)NCCOCCOc1ccccc1 : ≤ 0.01 µM
O=C(/C=C/c1cccnc1)NCCCCCCN1CCN(CCO)CC1 : ≤ 0.01 µM

Would you kindly share the measured minimal effective concentration for `O=C(/C=C/c1cccnc1)NCCOCCOc1ccc(CNC(=O)c2cccnc2)cc1` ?
≤ 0.01 µM

Would you kindly share the measured minimal effective concentration for `C#CCOc1ccc(C(=O)Nc2ccc(CNC(=O)c3cccnc3)cn2)cc1` ?
≤ 0.01 µM

Would you kindly share the measured minimal effective concentration for `O=C(/C=C/c1cccnc1)NCCCOCCOCCCNC(=O)/C=C/c1cccnc1` ?
≤ 0.01 µM

Would you kindly share the measured minimal effective concentration for `C/C(=C\C(=O)NCCCCCCNC(=O)/C=C(\C)c1cccnc1)c1cccnc1` ?
≤ 0.01 µM

Would you kindly share the measured minimal effective concentration for `O=C(NCCCOCCOCCCNC(=O)c1cnc2ccccc2c1)c1cccnc1` ?
0.1 to 1 µM

Would you kindly share the measured minimal effective concentration for `O=C(NCc1ccc(NC(=O)c2ccccc2)nc1)c1cccnc1` ?
≤ 0.01 µM

Would you kindly share the measured minimal effective concentration for `CN(C)c1ccc(/C=C/C(=O)Nc2ccc(CNC(=O)c3cccnc3)cn2)cc1` ?
≤ 0.01 µM

Would you kindly share the measured minimal effective concentration for `O=C(Cc1ccc2ccccc2c1)Nc1ccc(CNC(=O)c2cccnc2)cn1` ?
≤ 0.01 µM

Would you kindly share the measured minimal effective concentration for `N#Cc1ccc(CCC(=O)Nc2ccc(CNC(=O)c3cccnc3)cn2)cc1` ?
0.01 to 0.1 µM

Would you kindly share the measured minimal effective concentration for `NCCOCCOCCCCCCCCNC(=O)c1cccnc1` ?
≤ 0.01 µM
